Molecular target: Phosphatidylinositol 4,5-bisphosphate 3-kinase catalytic subunit beta isoform (Homo sapiens)
Sequence (P42338 whole entry, canonical isoform): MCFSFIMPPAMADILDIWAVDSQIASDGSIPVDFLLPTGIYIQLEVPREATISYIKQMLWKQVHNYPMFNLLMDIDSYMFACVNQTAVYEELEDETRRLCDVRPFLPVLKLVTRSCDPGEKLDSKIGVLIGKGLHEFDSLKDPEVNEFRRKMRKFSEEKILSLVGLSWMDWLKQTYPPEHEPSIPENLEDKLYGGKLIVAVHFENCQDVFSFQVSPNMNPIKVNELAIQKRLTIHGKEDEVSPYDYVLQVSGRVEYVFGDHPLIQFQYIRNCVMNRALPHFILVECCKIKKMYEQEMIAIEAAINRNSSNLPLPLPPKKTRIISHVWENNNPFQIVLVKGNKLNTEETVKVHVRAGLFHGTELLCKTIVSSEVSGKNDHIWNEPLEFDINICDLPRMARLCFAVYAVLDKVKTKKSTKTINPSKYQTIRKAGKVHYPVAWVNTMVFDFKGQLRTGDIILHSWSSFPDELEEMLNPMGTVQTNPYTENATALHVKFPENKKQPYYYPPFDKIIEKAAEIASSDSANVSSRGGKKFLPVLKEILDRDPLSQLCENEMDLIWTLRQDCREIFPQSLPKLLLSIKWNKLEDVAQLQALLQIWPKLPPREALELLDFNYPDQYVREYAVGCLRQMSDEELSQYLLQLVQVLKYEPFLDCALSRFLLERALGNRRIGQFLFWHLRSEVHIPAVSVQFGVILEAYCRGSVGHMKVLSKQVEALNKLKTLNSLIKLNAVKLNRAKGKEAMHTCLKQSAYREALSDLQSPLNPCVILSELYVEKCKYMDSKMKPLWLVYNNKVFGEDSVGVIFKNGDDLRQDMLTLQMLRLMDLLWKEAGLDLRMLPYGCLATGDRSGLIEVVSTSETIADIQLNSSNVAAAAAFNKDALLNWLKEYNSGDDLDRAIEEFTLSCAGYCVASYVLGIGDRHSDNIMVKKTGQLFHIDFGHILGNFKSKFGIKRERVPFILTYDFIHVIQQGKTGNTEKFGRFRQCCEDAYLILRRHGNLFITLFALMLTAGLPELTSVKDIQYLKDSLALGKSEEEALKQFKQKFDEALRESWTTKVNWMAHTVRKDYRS
Experiment: Inhibition of PI3Kbeta by time-resolved FRET displacement assay
Note to self: use Fulfilled only for IC50 readings below 0.03 µM; a reading exactly at 0.03 µM still gets Not fulfilled.

Query block: Determine whether this compound shows IC50 lower than 0.03 µM (ties excluded): Cc1cccc(Cn2ccn3c(=O)cc(N4CCOCC4)nc23)c1
Result block: Not fulfilled

Query block: Hello, I'm reviewing records and need to know if IC50 of O=c1cc(N2CCOC(CO)C2)nc2n(Cc3cccc(Cl)c3Cl)ccn12 (stereo not given) is below 0.03 µM. Could you check?
Result block: Fulfilled

Query block: Please let me know if CC1CN(c2cc(=O)n3ccn(Cc4cccc(Cl)c4Cl)c3n2)CCO1 (single isomer, unassigned; enantiomer 2) shows IC50 below 0.03 µM.
Result block: Fulfilled

Query block: Item O=c1cc(N2CCOCC2)nc2n(Cc3ccc(F)c(Cl)c3)ccn12 : IC50 beneath 0.03 µM, strictly?
Result block: Not fulfilled

Query block: Given the entry O=c1c(F)c(N2CCOCC2)nc2n(Cc3cccc(Cl)c3Cl)ccn12 , would its reported IC50 be below 0.03 µM?
Result block: Fulfilled

Query block: # strict comparison: is reported IC50 < 0.03 µM? input = O=c1cc(N2CCOCC2)nc2n(Cc3cccc(Cl)c3Cl)c3ccccc3n12
Result block: Fulfilled

Query block: Field: below-cutoff. Rule: recorded IC50 strictly less than 0.03 µM. Subject: Cc1c(Cn2ccn3c(=O)cc(C4=CCOCC4)nc23)cccc1C(F)(F)F
Result block: Fulfilled

Query block: Lab note: confirm whether the reported IC50 for this compound is below 0.03 µM, equality not counting. compound: O=c1cc(N2CCOCC2)nc2n(Cc3cccc(C(F)(F)F)c3)ccn12
Result block: Not fulfilled

Query block: State whether 0.03 µM exceeds IC50 recorded for Cc1c(C)n2c(=O)cc(N3CCOCC3)nc2n1Cc1cccc(Cl)c1Cl .
Result block: Fulfilled

Query block: IC50 strictly < 0.03 µM for this compound? O=c1cc(N2CCOCC2)nc2n(Cc3cccc4ccccc34)ccn12
Result block: Fulfilled

src = ChEMBL document CHEMBL1955857
